Measured values drawn from patent US20210388053A1 for this set.

- MEASURED TARGET: canine FcRn/B2M protein complex (canine FcRn ECD with C-terminal poly-His tag and canine Beta-2-Microglobulin) (canine)
- PROCEDURE TEXT: SPR Biacore 8K, pH 6.0, 25 C; Fc captured by SASA tag on BSA chip, FcRn/B2M 400 nM as analyte
ENDPOINT: kon (M⁻¹ s⁻¹)
// units = M⁻¹ s⁻¹; emit number, no label

variant canine IgG-B Fc polypeptide YYY (Leu24Tyr, Gln83Tyr, Asn208Tyr) (protein, not shown: small tags and cut ends) CPAPEMLGGPSVFIFPPKPKDTLYIARTPEVTCVVVDLDPEDPEVQISWFVDGKQMQTAKTQPREEQFNGTYRVVSVLPIGHYDWLKGKQFTCKVNNKALPSPIERTISKARGQAHQPSVYVLPPSREELSKNTVSLTCLIKDFFPPDIDVEWQSNGQQEPESKYRTTPPQLDEDGSYFLYSKLSVDKSRWQRGDTFICAVMHEALHYHYTQESLSHSPGK : 262000
variant canine IgG-B Fc polypeptide 0YR (Gln83Tyr, Asn208Arg) (protein, not shown: small tags and cut ends) CPAPEMLGGPSVFIFPPKPKDTLLIARTPEVTCVVVDLDPEDPEVQISWFVDGKQMQTAKTQPREEQFNGTYRVVSVLPIGHYDWLKGKQFTCKVNNKALPSPIERTISKARGQAHQPSVYVLPPSREELSKNTVSLTCLIKDFFPPDIDVEWQSNGQQEPESKYRTTPPQLDEDGSYFLYSKLSVDKSRWQRGDTFICAVMHEALHRHYTQESLSHSPGK : 693000

We next turn to a different binder, shown below.
Give its kon value. Item: variant canine IgG-B Fc polypeptide YYR (Leu24Tyr, Gln83Tyr, Asn208Arg) (protein, not shown: small tags and cut ends) CPAPEMLGGPSVFIFPPKPKDTLYIARTPEVTCVVVDLDPEDPEVQISWFVDGKQMQTAKTQPREEQFNGTYRVVSVLPIGHYDWLKGKQFTCKVNNKALPSPIERTISKARGQAHQPSVYVLPPSREELSKNTVSLTCLIKDFFPPDIDVEWQSNGQQEPESKYRTTPPQLDEDGSYFLYSKLSVDKSRWQRGDTFICAVMHEALHRHYTQESLSHSPGK
347000
